- MEASUREMENT_PROTOCOL: protease stability score; higher = more stable; yeast display proteolysis, trypsin and chymotrypsin;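 further: relative to predicted unfolded state with 0 unfolded-like and 1 meaning tenfold more protease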
ASSAY_READOUT: protease stability score
Give a plain numeric answer without units written out.

// below: answered sequences
DEEDRELEEMLELIIHAFKTGDEEIMKRLFDPNTRIRINGREEIGWEHAVKILREWRFRHVILRRKHKQGDKLHYEFEVHGHFDGQQDSVHVRILILKVNGRWIITEYIFV | 2.51
SDEEKESKHMFKIYLDFLRTGNEEQYSEMADPNVRIEVNGVTIHGRELAVKFMKEVRDEMRIHDYRIRHLDVFNGRVHADTEENVEFNGVRFITRTKIHLHIVNGRIKSVREEID | 0.903

Prompt: // protease stability score lookup, key: SEEETFTEIAVKLLMHLWNTGDENELMRNFDPNARMDINGQEYHGREDIVRRLDEFKKRLGVERVHFELNDIRPVNGRADVDGIVIFNGQKLRVRHIVWKINGRWYLEEFEVR
Response: 1.44

----------
As shown below, each of these sequences has a reported protease stability score value.
- MEASUREMENT_PROTOCOL: protease stability score; higher = more stable; yeast display proteolysis, trypsin and chymotrypsin;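 further: relative to predicted unfolded state with 0 unfolded-like and 1 meaning tenfold more protease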
Give a plain numeric answer without units written out.

// below: answered sequences
DEEEKDAIMLSEISTHLMSTGDEHETSHNADPNTRLEYGDFEFHGREEFIKIWVEQMEKVKGMTIRLHSIHVQGDKAVSHVKIHVNGVDFHIIYIAEKFNGRWQLRSSIVI | 1.06
SEDKKATNEASEIIIRLLKTGDEHLANHYIDPNVRMIFENRDVHGRETFEEWMRRVDHFHHYDVRHVHTQGDKINIDSEHNIHINGQEEIKDVYWISTKIDGKWILKSIEVR | 1.28
HEEERDLEHWDELLLKSITTGDWRILTKLVDPHARIIILVNGKLITHIGREYVYHLLLRFDHIRTHDFRTNIQGDYIDHHIEGKLHVNGKDMDSHIINHSEKVDGRWTVHTVNIEFI | 1.22

Prompt: // protease stability score lookup, key: SEEEHEAIKHAYEFLEWLRTGDEEKIEKLLDPNVRLIIGDKTAHGREEFIRVMKEELERMGVNVFRLRDTRVNIFDGRVEIRFDTDLHFNGKTVHVELILRVHKVDGRWVLESVQVNIH
Response: 1.48

Prompt: // protease stability score lookup, key: DEDEKLSKFAIDNFIQLMLTGDEDSLLHLADPNARLHFNGVEIHGMEEVQERLMRERKERGVRIHSIHIEHIDIQGDWIIVHMHITQRVNGKEESIERILILLKINGRWHLHQIRLH
Response: 1.28

Prompt: // protease stability score lookup, key: DESEKHAEEFLRLLEESLLTGNWKFISELLDPRARTDYNGRDLHGRETMERWVKDFVRHIRIDHINNKTIDVQGDKVIIIGEVDGTINGRRERLEVHIFFLKVNGRWYLESTEFR
Response: 1.27

Prompt: // protease stability score lookup, key: SEEEEMTRLALEIFHRVYKTGDEDKYRDLADPHVRLVVGDKTFHGREHYLKFFRHIRIHHSHLDDFEIQGDKAILDTTIDVNINGKRHWIKTHVISVKVNGQWRLHSEELS
Response: 0.178

Prompt: // protease stability score lookup, key: SEEEKILEDALRLLIEVDETGNWKLLQEMIDPNVLVDINGRKYHGREQWIRLLHEFIRDAGVQRIHSDIEHIEIQGEKIIMHGMLDINGQRRRTEVIAHKYDGRWFVEEIRIR
Response: 2.11

Prompt: // protease stability score lookup, key: DEEEELSKIAIRIFLKTLETGDERTLSELMDPHARLVINGREYHGREEASKEWHKWVEHLRVRDIKISSVRINEHELILHEKFEVEVNGRNLKLDVLIIVVKVDGRWVLRTNTIN
Response: 2.68

Prompt: // protease stability score lookup, key: EEEKETERIASEHHLEHLRTGDEETYLRNFDPHVRLDIDGREFHGWEFFRHFLRRMGFKHVRHIQIHHSELFNGRLFFDGTIRFRVGDKEDTFKVEVVDVKFNGRWHIQEFRVK
Response: 1.43

Prompt: // protease stability score lookup, key: DKEEELVKKFLELWLHALRTGDEDFIRELFDPHARFVFDGRDFHGMEEFIRIMRHIRFHHIHLHHFDLQGDYVRLDTRVDGNVDGKRVTINTHMIMHKVNGRWVLESYTID
Response: 0.839

----------
- MEASUREMENT_PROTOCOL: protease stability score; higher = more stable; yeast display proteolysis, trypsin and chymotrypsin;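 further: relative to predicted unfolded state with 0 unfolded-like and 1 meaning tenfold more protease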
ASSAY_READOUT: protease stability score
Give a plain numeric answer without units written out.

SEEQEHTREAMEVYLHLMHTGDWDRFRELVDPNVRMNINGVDLHGWEELTRFMEIFWRDLGFDHFKIHEMRIYGEKSHIRGESIIGDKSREVHIHVVIVNGRIKSEKFVET | 0.83
DEDAHLIEHLVHLMLHATNTGDEDILKDLMDPNMKIQIGDKEFHGREEFEEMHRRADHLETTDWKLHSVDIQGDKIHLDTRVDRVIIINGKITREDTRTELDVRKIDGRWVVTRISVE | 1.27
SEKHEEVKRALELEVQLLRTGDEDIYANLADPNTRLLFDGVDIIGMEKVMEWLRFIHEHIRIRDLKIRRVRLIDGQVDVDSQIEGHVGDKHINIKHEIVVEKINGRWYIRSRHWH | 1.52
SDEEKDAKRAIEIYLRMVETGDEETSKELMDPNVRMHVNGQDVHGRERVAKLFHELSRRIDHHEVRLDRWDVQGDKLIIHTEIIWRVNGVEIRRRTLIIMRKFNGRWYIEELNIE | 0.181
SEVEEEMKRRVELLIRLLLTGDEDTFDSNADPDTRVVIRQGDFRVENHGRELMLHHLRELGIKVTELHLREIRIQGDWAHVNIQEHIEVDGRLESRTIHLHFFLVDGKVKSWEIEVR | 1.27

Prompt: // protease stability score lookup, key: SEDETEEHKFHNILSHAWETGDEEVLERLADPHVRFFYNGKEQVGRELMVELLRELLKRLGVDRIEIEIKDVRLQGDKARWHGDNVFNGRRVHVHISLVKVNGRWRIHHLDMG
Response: 1.31

----------
- MEASUREMENT_PROTOCOL: protease stability score; higher = more stable; yeast display proteolysis, trypsin and chymotrypsin;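 further: relative to predicted unfolded state with 0 unfolded-like and 1 meaning tenfold more protease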
As shown below, each of these sequences has a reported protease stability score value.
Give a plain numeric answer without units written out.

// below: answered sequences
GDEEHHATEALERLIHSFETGDEELMTKLVDPHVRFEVNGKLFIGREDVMRWLKERLDRFDHHRVDFKHIRVVGDKVDIHLVLEVDFNGQHFSHDVRVRIIKINGRWRLTHMSIH | 2.3
SEEEESIRHSWEIFETVLKTGDWTDYEKLFDPNDRTEIGDKRLHGMDLLIHILRRLGIKHNHAEMRIRSFEMIGDKAIIDGEIHVVLDFNGREVRSSSEILIIDRKINGRWLVESMHVI | 1.21

Prompt: // protease stability score lookup, key: TELEREVETFLEMWITAIHTGDWTTLIELIDPHARLDYDGREIHGMEYYVEEFIKRLQEHGARVDIKIDRIDFQGDKVRVIGQLEVIIGEKREVKDVIIYIEKVDGKWRLHHEEIV
Response: 1.37

Prompt: // protease stability score lookup, key: EEEEKMARKMIKDIIENFRTGDWDLMETLADPDVRLHFNGRDYHGREEFLKIERTRFEKVPNVRETERNVTWRNFDGRLELEIHTEHIINGVRIHVLLIFTTEKINGRWSMKSIEIHEK
Response: 0.704

Prompt: // protease stability score lookup, key: SEEDHHTERIVEEFIEAERTGDEDHLLELIDPHVRVDVNGVELHGREELYKFWRDWLTKFKNARIEIRHVNNQGDKSTVLVLRRINGVDLETHVKWVFVNGKLKSITIRLN
Response: 1.49

Prompt: // protease stability score lookup, key: DEWKRLALEVLRLWEEFMSTGDEKSVEELADPNVRILYDGVQLHGMDEVRRHLKELREHSHHVEIRRATVIDGRVHVDGTLDVTIEIGDKKIREEIRVKIHIIKVNGKWFVHSVEFR
Response: 1.49

Prompt: // protease stability score lookup, key: LEEEEIARELLKRILDMLFTGDEEVLSELLDPNVRVDFNGVEIHGREHVREWMHHLRFRHLHLRDFRVQGDKLHLDTETRGEIDGQEVRIETRLIARKVDGRWILKSREFV
Response: 1.53

Prompt: // protease stability score lookup, key: DEEEETARRLTEELIRSQKTGDWEFLLRLMDPHAKSDINGVHVVGMEETVRILEKLLRDLGVTKVEALLHRVHFIDGRVHVDSEERYGDKWFRVHFTVQKINGKWVIRSIEVR
Response: 1.4

Prompt: // protease stability score lookup, key: RDEDHELKEMRRMIHEIIMTGDEDKWKKMADPHVQLHIGDKHHHGRDHVSRILTELRVHHFDVEHIHHEFINGRATLRIEGTLHGIINGVEKKVETEIRIIIIKFNGVWYIESQEFHVI
Response: 0.492
